# Tested on: Human papillomavirus type 1a E7 protein (residues 1-88)
# Assay Explanation: HPV1a E7 small-molecule binders, primary screen, biochemical, small-molecule microarray, residues 1-88, 635 nm (AID 1129)
# Measurement Setup: small-molecule microarray binding, fluorescence 635 nm; higher = more signal
For each entry below, report its composite z-score value.
Write no unit; give the number alone.

Kindly note: Human papillomavirus type 1a E7 protein (residues 1-88), COCCCN1C(=O)[C@@]2(c3ccc([N+](=O)[O-])cc3)CC(=O)N(C3CCCCC3)[C@@H]2c2ccc(CO)cc21 , composite z-score value reported: -0.62

Kindly note: Human papillomavirus type 1a E7 protein (residues 1-88), [N-]=[N+]=Nc1ccccc1[C@H]1OC(c2ccc(OCCCO)cc2)=N[C@@]1(Cc1ccccc1)C(=O)O , composite z-score value reported: 1.25

Kindly note: Human papillomavirus type 1a E7 protein (residues 1-88), Cc1ccc(C(C)CC(O)C2C=CC3C(=O)N(c4ccccc4)C(=O)C3N2Nc2ccc([N+](=O)[O-])cc2)o1 (stereo not drawn) , composite z-score value reported: 1.23

* * *

For each entry below, report its z-score value.
# Assay Explanation: CREB reporter modulators without forskolin, primary screen, cell-based, PC12, CRE-LacZ reporter, unstimulated (AID 1145)
# Measurement Setup: no forskolin, luminescence, 4.5 h, higher = more signal, called active from +8 up or from −8 down
Write no unit; give the number alone.

In plain terms, C[C@@]1([C@@H](NC(=O)c2ccccc2)c2ccc(-c3ccccc3)cc2)C[C@H]1C1CCCCC1 has a documented z-score of 0.201

In plain terms, CCCCCC1=C2CNC(CCC)(C(=O)OC)C=C2C(C)C1=O (stereo not drawn) has a documented z-score of -0.751

In plain terms, C=C(COC)/C(=C/C[C@H](OC(=O)c1ccncc1)c1ccc(OCCO)cc1)c1cnc2ccccc2c1 has a documented z-score of 6.73

In plain terms, CC(=O)n1cc(C(O)C2C=CC3C(=O)N(C)C(=O)C3N2Nc2ccccc2)c2ccccc21 (stereo not drawn) has a documented z-score of 0.0569

In plain terms, COCCCN1C(=O)[C@@]2(c3ccc([N+](=O)[O-])cc3)CC(=O)N(C3CCCCC3)[C@@H]2c2ccc(CO)cc21 has a documented z-score of -0.761

In plain terms, CN(C)CCCNC(=O)[C@@]1(C)c2ccccc2C(=O)N(Cc2cc(F)cc(C(F)(F)F)c2)[C@H]1c1ccc(CO)cc1 has a documented z-score of -0.0888

In plain terms, CC1(C)[C@@H]2CC(C(O)C3C=CC4C(=O)N(c5ccccc5)C(=O)C4N3Nc3ccccc3)=C[C@H]1C2 (stereo partly drawn) has a documented z-score of 1

In plain terms, C=CCC(OC(C)=O)[C@@H]1[C@@H](N(Cc2ccc(-c3cccc(C(F)(F)F)c3)o2)C(=O)Cc2ccc(F)cc2)c2cc(OCCCO)ccc2N1C(=O)Cc1ccc(OC)cc1 (stereo partly drawn) has a documented z-score of 0.236

In plain terms, C=CCN(Cc1ccccc1)C(=O)C(c1cccs1)N(CCOCCO)C(=O)/C=C\C(=O)O (stereo not drawn) has a documented z-score of -1.58

In plain terms, COc1ccc([C@H]2OC[C@@H]3CC4(CC=CC4)C(=O)N32)cc1 has a documented z-score of 0.236

In plain terms, O=C1OCCC/C=C\[C@H]2OC34C=CCN(c5ccc6ccccc6c5)C(=O)[C@H]3N(CCCCCCO)C(=O)[C@@H]4C12 (stereo partly drawn) has a documented z-score of 0.61

In plain terms, CCOC(=O)C[C@H]1[C@H](OC(=O)Cc2ccc3c(c2)OCO3)[C@@H](NC(=O)c2ccc(-c3ccccc3)cc2)c2cc(OCCCO)ccc2N1C(=O)c1ccc2ccccc2n1 has a documented z-score of 4.93

In plain terms, CN1C(=O)C2C=CC(C(O)C3=C[C@H]4C[C@@H](C3)C4(C)C)N(Nc3ccccc3)C2C1=O (stereo partly drawn) has a documented z-score of 0.812

In plain terms, O=C1[C@H]2C=C(Br)[C@H](C[C@@H]2OCCCCO)[C@@]12CO2 has a documented z-score of 0.22

In plain terms, COC(=O)C(CC#Cc1ccc2c(c1)[C@]1(C(=O)N2)[C@H](c2ccc(O)cc2)N2[C@H](c3ccccc3)[C@H](c3ccccc3)OC(=O)[C@H]2[C@@H]1C(=O)Nc1nc2ccccc2s1)C(=O)OC has a documented z-score of 1.15

In plain terms, [N-]=[N+]=Nc1ccccc1[C@H]1OC(c2ccc(OCCCO)cc2)=N[C@@]1(Cc1ccccc1)C(=O)O has a documented z-score of -0.0249

In plain terms, O=C1c2ccccc2[C@](Cc2ccccc2I)(C(=O)NC2CC2)[C@H](c2ccc(CO)cc2)N1C1CCCCC1 has a documented z-score of 0.531

In plain terms, CCCCc1cn(C[C@H](Cc2ccccc2)NC(=O)N[C@H](CO)CCc2oc(C(C)=O)c(C(=O)OC)c2C(=O)OC)nn1 has a documented z-score of 1.02

In plain terms, C#CCN(CC1=CCCCC1)[C@H](c1ccccc1Br)[C@@H](O)Cc1ccccc1 has a documented z-score of 2.21

In plain terms, CCOC(=O)C[C@H]1[C@H](OC(=O)c2ccc(C(=O)c3ccccc3)cc2)[C@@H](NC(=O)c2ccc(-c3ccccc3)cc2)c2cc(OCCCO)ccc2N1C(=O)c1ccccc1 has a documented z-score of 0.0035

In plain terms, C=C(COC)/C(=C/C[C@@H](OC(C)=O)c1ccc(OCCO)cc1)c1cc(C(=O)OC)ccc1OC has a documented z-score of 1.82

In plain terms, C=CCOC(=O)[C@@H]1[C@H]2C(=O)O[C@H](c3ccccc3)[C@H](c3ccccc3)N2[C@H](c2ccc(OCCOC(=O)[C@@H]3C[C@@H]4C(=O)N[C@@H](CCCCN(C)C)C(=O)N4[C@@H]3c3ccc(O)cc3)cc2)[C@@]12C(=O)Nc1ccc(I)cc12 has a documented z-score of -0.675

In plain terms, O=C1OCCC/C=C\[C@H]2OC34C=CCN(CCN5CCOCC5)C(=O)[C@H]3N(CCCO)C(=O)[C@@H]4C12 (stereo partly drawn) has a documented z-score of -0.484

In plain terms, C=C[C@H](COC(C)=O)N(C(=O)OC(C)(C)C)S(=O)(=O)c1ccc(Br)cc1 has a documented z-score of 0.652

In plain terms, O=C(NCc1ccccc1)[C@@]1(Cc2ccccc2)N=C(c2ccc(OCCCO)cc2)O[C@H]1c1ccccc1 has a documented z-score of -0.183

In plain terms, C=CC[C@@]1(C(N)=O)N=C(c2ccc(OCCCO)cc2)O[C@@H]1c1ccccc1CN=[N+]=[N-] has a documented z-score of 1.8

In plain terms, C=CC[C@]1(C(=O)NCCCOC)N=C(c2ccc(OCCCO)cc2)O[C@H]1c1ccccc1N=[N+]=[N-] has a documented z-score of 2.14

In plain terms, C=CCOC(=O)[C@H]1[C@@H]2C(=O)O[C@@H](c3ccccc3)[C@@H](c3ccccc3)N2[C@@H](c2ccc(OCCOC(=O)[C@H]3C[C@H]4C(=O)N5CCC[C@H]5C(=O)N4[C@H]3c3ccc(O)cc3)cc2)[C@]12C(=O)Nc1ccccc12 has a documented z-score of 0.415

* * *

For each entry below, report its z-score value.
# Assay Explanation: fission yeast growth modulation, primary screen, strain 972, OD600, 24 h, no modulator (AID 1090);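 further: basal condition with compound alone and no growth modifier present; test concentration not given here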
# Measurement Setup: S. pombe 972 growth, higher = more signal, called active from +8 up or from −8 down
Write no unit; give the number alone.

In plain terms, CCOC(=O)[C@H]1C/C=C/C[C@H](C(=O)OCC)C(=O)O[C@H]2[C@@H](OC)O[C@H](CO)[C@@H](OC(=O)Nc3ccc(C#N)cc3)[C@@H]2OC1=O has a documented z-score of -1.11

In plain terms, C=CCNC(=O)[C@H]1[C@@H]2C(=O)O[C@@H](c3ccccc3)[C@@H](c3ccccc3)N2[C@@H](c2ccccc2OCCO)[C@]12C(=O)Nc1ccc(C#CC3=CCCCC3)cc12 has a documented z-score of -1.27

In plain terms, C=CCC(OC(C)=O)[C@@H]1[C@@H](N(Cc2ccc(-c3ccccc3)cc2)C(=O)Cc2ccc(F)cc2)c2cc(OCCCO)ccc2N1C(=O)c1ccc(-c2ccccc2)cc1 (some centres not stated) has a documented z-score of -0.379

In plain terms, [N-]=[N+]=NCc1ccccc1C[C@]1(C(=O)NCC(O)CO)N=C(c2ccc(OCCCO)cc2)O[C@H]1c1ccccc1 (some centres not stated) has a documented z-score of 0.559

In plain terms, C=CCN1C(=O)[C@]2(O[C@H](CCO)[C@@H]([Si](C)(C)c3ccc(OC)cc3)[C@@H]2C)c2cc(N3CCCCC3=O)ccc21 has a documented z-score of 0.413

In plain terms, O=C1C2C=CC(C(O)c3ccc(F)cc3)N(Nc3ccccc3F)C2C(=O)N1c1ccccc1 (configuration not stated) has a documented z-score of -0.268

In plain terms, O=C1NC(=O)C2C1C=CC(C(O)Cc1ccccc1)N2Nc1ccc(Cl)cc1Cl (configuration not stated) has a documented z-score of -1.51

Source listed as PubChem BioAssay.
